The reported measurements were obtained from ChEMBL document CHEMBL1123909.

# Measured On: Renin (Homo sapiens, UniProt P00797)
# Sequence (P00797 whole entry): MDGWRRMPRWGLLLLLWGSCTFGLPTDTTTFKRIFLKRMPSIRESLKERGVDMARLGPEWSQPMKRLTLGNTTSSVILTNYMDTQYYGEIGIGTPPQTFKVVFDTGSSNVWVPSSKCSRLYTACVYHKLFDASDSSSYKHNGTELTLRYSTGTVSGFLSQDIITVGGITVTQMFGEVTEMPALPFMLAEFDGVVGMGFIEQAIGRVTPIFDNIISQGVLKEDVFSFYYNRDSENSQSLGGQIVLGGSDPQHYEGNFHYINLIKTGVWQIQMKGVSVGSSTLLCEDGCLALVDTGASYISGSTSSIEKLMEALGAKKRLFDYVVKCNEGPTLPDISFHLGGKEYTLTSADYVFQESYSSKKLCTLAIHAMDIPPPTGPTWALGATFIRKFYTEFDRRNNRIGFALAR
# Assay Protocol: Inhibition of human renal renin at the pH optimum 6.0.
Quantity: pIC50
pIC50 here is simply -log10 of the concentration when that concentration is written in mol/L.

[
  {
    "Compound": "CC(C)C[C@@H](NC(=O)[C@H](C)NC(=O)[C@H](Cc1ccccc1)NC(=O)OC(C)(C)C)[C@H](O)CSC1CCCCC1",
    "pIC50": 6.10
  },
  {
    "Compound": "CC(C)COC[C@@H](O)[C@@H](CC(C)C)NC(=O)[C@H](C)NC(=O)[C@H](Cc1ccccc1)NC(=O)OC(C)(C)C",
    "pIC50": 5.15
  }
]

Problem: Can you look up pIC50 on Renin (Homo sapiens, UniProt P00797) for CC(C)C[C@H](NC(=O)[C@H](Cc1c[nH]cn1)NC(=O)[C@H](Cc1ccccc1)NC(=O)OC(C)(C)C)[C@@H](O)CSC1CCCCC1 (stereo in doubt; 55) ?
Solution: 7.46

* * *

// inhibition lookup, one value per entry
# Measured On: Pepsin A (Sus scrofa)
# Assay Protocol: Inhibition of porcine pepsin
# Set-up: concentration or dose not given beside the values
# Conditions: concentration not given here
Field format: number, assumed %, no unit text.

Past entries and their recorded results:
[
  {
    "Structure Smiles String": "CC(C)C[C@@H](NC(=O)[C@H](Cc1ccccc1)NC(=O)[C@H](Cc1ccccc1)NC(=O)OC(C)(C)C)[C@H](O)CSc1ccccc1",
    "Units Of Measure": "%",
    "inhibition": 11
  },
  {
    "Structure Smiles String": "CC(C)C[C@@H](NC(=O)[C@H](Cc1ccc(O)cc1)NC(=O)[C@H](Cc1ccccc1)NC(=O)OC(C)(C)C)[C@H](O)CSc1ccccc1",
    "Units Of Measure": "%",
    "inhibition": 11
  },
  {
    "Structure Smiles String": "CC(C)COC[C@@H](O)[C@@H](CC(C)C)NC(=O)[C@H](Cc1c[nH]cn1)NC(=O)[C@H](Cc1ccccc1)NC(=O)OC(C)(C)C",
    "Units Of Measure": "%",
    "inhibition": 0
  },
  {
    "Structure Smiles String": "CC(C)C[C@@H](NC(=O)[C@H](C)NC(=O)[C@H](Cc1ccccc1)NC(=O)OC(C)(C)C)[C@H](O)COc1ccccc1",
    "Units Of Measure": "%",
    "inhibition": 27
  },
  {
    "Structure Smiles String": "CC(C)CC[C@@H](O)[C@@H](CC(C)C)NC(=O)[C@H](Cc1c[nH]cn1)NC(=O)[C@H](Cc1cccc2ccccc12)NC(=O)OC(C)(C)C",
    "Units Of Measure": "%",
    "inhibition": 6
  },
  {
    "Structure Smiles String": "CC(C)C[C@@H](NC(=O)[C@H](C)NC(=O)[C@H](Cc1ccccc1)NC(=O)OC(C)(C)C)[C@H](O)CSCCCc1ccccc1",
    "Units Of Measure": "%",
    "inhibition": 74
  }
]

API: the following record is the query input.
Problem: Give the measured inhibition of CC(C)C[C@@H](NC(=O)[C@H](Cc1c[nH]cn1)NC(=O)[C@H](Cc1ccccc1)NC(=O)OC(C)(C)C)[C@H](O)COC(C)C .
Solution: 0
